// data source = patent US20100016547A1

target: GLP-1 receptor (Homo sapiens)
measure: pIC50
Entry type: numeric. Quantity: pIC50, the -log10 of concentration in molar units.

Write down the reported pIC50 of H-HAEGTFTSDVSSNLEGQAAKEFIAWLVKGR-NH2 [GL19N] , test system: GLP-1 receptor (Homo sapiens).
7.96

====

target: GLP-1 receptor (Homo sapiens, UniProt P43220); assay: Assay for production of cAMP
Sequence (P43220 24-463, species assumed): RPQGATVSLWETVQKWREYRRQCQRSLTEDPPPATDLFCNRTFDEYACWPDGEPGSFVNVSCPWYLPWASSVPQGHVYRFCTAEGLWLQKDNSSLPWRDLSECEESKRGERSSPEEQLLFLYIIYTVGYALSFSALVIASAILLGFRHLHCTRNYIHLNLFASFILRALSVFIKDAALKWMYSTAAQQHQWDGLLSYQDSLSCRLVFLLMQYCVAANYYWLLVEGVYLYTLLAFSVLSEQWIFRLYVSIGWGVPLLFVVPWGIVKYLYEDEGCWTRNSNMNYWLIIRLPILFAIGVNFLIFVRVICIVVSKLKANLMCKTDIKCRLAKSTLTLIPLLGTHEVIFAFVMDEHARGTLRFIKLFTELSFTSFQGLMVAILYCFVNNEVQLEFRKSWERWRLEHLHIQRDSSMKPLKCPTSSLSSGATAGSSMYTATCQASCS
measure: EC50 (nM)
Reply with just the number (in nM).

Reported EC50, substance H-HAEGTFTSDVSSNLEGQAAKEFIAWLVKGR-NH2 [GL19N] : ____
0.92
